Molecular target: Aldo-keto reductase family 1 member B1 (Bos taurus)
Assay: Inhibition of bovine lens ALR2 at 25 uM
Conditions: Lens of camera-type eye
Activity calls are given as the source filed them. No cut-off for these calls is given here.
parameter.measured: inhibition

A selection of reference data follows.
1. O=C1NC(=O)/C(=C/c2ccc(/C=C/c3ccccc3)cc2)S1	inactive
2. Cc1ccc(/C=C/c2ccc(/C=C3\SC(=O)NC3=O)cc2)cc1	39%
3. O=C1NC(=O)/C(=C/c2ccc(/C=C/c3ccc(C(F)(F)F)cc3)cc2)S1	29%
4. COc1ccc(/C=C/C=C2/SC(=O)NC2=O)cc1	51%
5. O=C1NC(=O)/C(=C\C=C\c2ccccc2)S1	31%

Which inhibition is listed for COc1ccc(/C=C/c2ccc(/C=C3\SC(=O)NC3=O)cc2)cc1 ? inactive

Item: O=C1NC(=O)/C(=C/C=C/c2ccc(C(F)(F)F)cc2)S1 65%

Item: Cc1ccc(/C=C/C=C2/SC(=O)NC2=O)cc1 46%
